Recorded PBM binding z-score, one value per entry.
System: PXR:RXRa (NR concentration 270 nM, RXRa partner concentration 90 nM)
Test name: PBM binding z-score (relative to random genomic background probes); higher = stronger binding; sequences stand for … in GC…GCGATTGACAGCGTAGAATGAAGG
Reported endpoint: PBM binding z-score

Sequence content: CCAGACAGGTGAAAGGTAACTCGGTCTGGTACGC
Result: 0.75
--
Sequence content: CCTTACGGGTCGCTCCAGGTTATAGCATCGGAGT
Result: 1.93
--
Sequence content: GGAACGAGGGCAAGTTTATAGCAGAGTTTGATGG
Result: 1.13
--
Sequence content: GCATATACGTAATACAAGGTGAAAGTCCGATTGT
Result: 0.381
--
Sequence content: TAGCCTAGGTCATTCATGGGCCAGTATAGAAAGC
Result: 1.66
--
Sequence content: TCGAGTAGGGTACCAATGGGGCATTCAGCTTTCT
Result: -0.333
--
Sequence content: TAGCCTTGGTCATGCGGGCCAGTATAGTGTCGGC
Result: -0.758
--
Sequence content: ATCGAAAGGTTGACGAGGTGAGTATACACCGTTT
Result: 0.914
--
Sequence content: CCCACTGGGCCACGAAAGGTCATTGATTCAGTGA
Result: 5.57
--
Sequence content: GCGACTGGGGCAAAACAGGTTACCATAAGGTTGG
Result: 0.334
--
Sequence content: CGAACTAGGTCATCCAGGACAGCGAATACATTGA
Result: 1.78
--
Sequence content: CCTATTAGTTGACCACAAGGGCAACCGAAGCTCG
Result: 0.841

----------
Below, each entry is listed with its recorded PBM binding z-score.
Test system: PXR:RXRa (NR concentration 270 nM, RXRa partner concentration 90 nM)
Test name: PBM binding z-score (relative to random genomic background probes); higher = stronger binding; sequences stand for … in GC…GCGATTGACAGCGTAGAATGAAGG

Sequence content: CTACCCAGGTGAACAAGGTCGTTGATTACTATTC
Target of assay: PXR:RXRa (NR concentration 270 nM, RXRa partner concentration 90 nM)
PBM binding z-score: 2.03
//
Sequence content: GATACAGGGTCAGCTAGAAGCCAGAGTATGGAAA
Target of assay: PXR:RXRa (NR concentration 270 nM, RXRa partner concentration 90 nM)
PBM binding z-score: 1.64
//
Sequence content: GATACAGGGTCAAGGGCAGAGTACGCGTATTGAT
Target of assay: PXR:RXRa (NR concentration 270 nM, RXRa partner concentration 90 nM)
PBM binding z-score: 4.01
//
Sequence content: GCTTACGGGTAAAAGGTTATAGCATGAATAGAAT
Target of assay: PXR:RXRa (NR concentration 270 nM, RXRa partner concentration 90 nM)
PBM binding z-score: 2.36
//
Sequence content: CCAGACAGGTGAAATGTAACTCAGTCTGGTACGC
Target of assay: PXR:RXRa (NR concentration 270 nM, RXRa partner concentration 90 nM)
PBM binding z-score: 0.0204
//
Sequence content: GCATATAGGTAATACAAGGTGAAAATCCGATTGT
Target of assay: PXR:RXRa (NR concentration 270 nM, RXRa partner concentration 90 nM)
PBM binding z-score: 0.273

----------
Tested on: VDR homodimer (NR concentration 270 nM)
Test name: PBM binding z-score (relative to random genomic background probes); higher = stronger binding; sequences stand for … in GC…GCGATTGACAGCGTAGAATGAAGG
Reported endpoint: PBM binding z-score

Sequence content: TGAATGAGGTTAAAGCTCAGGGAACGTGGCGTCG
Reported endpoint: PBM binding z-score
Result: 0.0356

Sequence content: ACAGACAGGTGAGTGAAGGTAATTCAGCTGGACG
Reported endpoint: PBM binding z-score
Result: -0.158

Sequence content: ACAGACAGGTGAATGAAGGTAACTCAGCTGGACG
Reported endpoint: PBM binding z-score
Result: -0.781

Sequence content: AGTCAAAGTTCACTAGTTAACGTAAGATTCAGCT
Reported endpoint: PBM binding z-score
Result: 4.04

Sequence content: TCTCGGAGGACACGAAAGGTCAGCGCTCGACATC
Reported endpoint: PBM binding z-score
Result: 1.13

Sequence content: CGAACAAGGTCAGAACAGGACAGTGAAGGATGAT
Reported endpoint: PBM binding z-score
Result: 1.14

Sequence content: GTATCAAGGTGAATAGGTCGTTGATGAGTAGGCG
Reported endpoint: PBM binding z-score
Result: 0.555

Sequence content: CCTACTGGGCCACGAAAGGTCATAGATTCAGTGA
Reported endpoint: PBM binding z-score
Result: 1.31

Sequence content: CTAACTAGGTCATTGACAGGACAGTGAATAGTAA
Reported endpoint: PBM binding z-score
Result: 1.14

Sequence content: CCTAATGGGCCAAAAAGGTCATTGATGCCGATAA
Reported endpoint: PBM binding z-score
Result: 2.59

Sequence content: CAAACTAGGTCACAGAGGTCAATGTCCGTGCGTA
Reported endpoint: PBM binding z-score
Result: 6.33

Sequence content: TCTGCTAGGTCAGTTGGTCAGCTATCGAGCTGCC
Reported endpoint: PBM binding z-score
Result: -0.608
